tested on: OVCAR-4; assay: NCI tumour cell line growth inhibition, 48 h
Active and inactive are the calls of the source. Cut-off read from the data, not from the text of the source: active = GI50 up to about 1.1 µM and inactive = higher.
GI50 values for the compounds below.

Compound: O=c1cc(-c2ccc(O)c(O)c2)oc2cc(O[C@H]3O[C@H](CO)[C@@H](O)[C@H](O)[C@H]3O)cc(O)c12
GI50: > 100 µM (inactive)
//
Compound: COc1ccc(CCN2C(=O)CC34C=CC(CC3C2=O)O4)cc1OC (configuration not stated)
GI50: > 100 µM (inactive)
//
Compound: c1ccc2c(c1)Sc1ccccc1N2CC1CN2CCC1CC2 (configuration not stated)
GI50: 6.5 µM (inactive)
//
Compound: Cc1ccc(NC(=O)C2C(=O)C(=O)N(c3ccc(C)cc3)C2=O)cc1 (configuration not stated)
GI50: > 100 µM (inactive)
//
Compound: COC(=O)CN1CCN(c2cccc3c2CCCC3)CC1
GI50: 52.8 µM (inactive)
//
Compound: O=c1[nH]ncc2[nH]c3c(c12)CCc1ccccc1-3
GI50: 32.1 µM (inactive)
//
Compound: COc1ccc(C(=O)/C=C/c2ccc3c(c2)OCO3)c(OCc2ccccc2)c1
GI50: 15.1 µM (inactive)
//
Compound: COC(=O)C(CCC1(C)OCCO1)C(C)=O (configuration not stated)
GI50: > 100 µM (inactive)
//
Compound: C[N+](C)(C)C(C1=CCCC1=O)c1ccccc1 (configuration not stated)
GI50: 80.7 µM (inactive)
//
Compound: O=C(O)CSC1=NC(=O)C2(NN1)c1ccccc1-c1ccccc12
GI50: > 10 µM (inactive)
//
Compound: O=C(Nc1c(O)[nH]c(=S)[nH]c1=O)c1ccccn1
GI50: > 100 µM (inactive)
//
Compound: CC1=NN(c2cccc(Cl)c2)C2(SCC(=O)N2c2nc3ccccc3s2)/C1=C\c1ccccc1 (configuration not stated)
GI50: 16.7 µM (inactive)
//
Compound: CCOC(=O)c1nc2ccc(C(F)(F)F)cc2nc1Oc1cc(OC)cc(OC)c1
GI50: 26.4 µM (inactive)
//
Compound: O=C(Nc1sccc1S(=O)(=O)c1ccccc1)c1ccccc1
GI50: > 57.9 µM (inactive)
//
Compound: Cc1cc2c(cc1Cl)SC(NN(C)C)=NS2(=O)=O
GI50: > 10 µM (inactive)
//
Compound: O=C(OC(=O)n1ccc2ccccc21)n1ccc2ccccc21
GI50: > 100 µM (inactive)
//
Compound: Cc1cccc(/N=N/c2c(C)nn(C(=O)CC(=O)Nc3ccc(Cl)cc3)c2C)c1
GI50: > 100 µM (inactive)
//
Compound: COC1(OC)N=C(N)C2(C#N)C(c3ccccc3)NC3=C(CCC3)C12C#N (configuration not stated)
GI50: > 100 µM (inactive)
//
Compound: CC(C)CN1CC(C)C(=O)NC1=O (configuration not stated)
GI50: > 100 µM (inactive)
//
Compound: CC1=CC(C2/C(=N/O)C=C(C)CC2(C)C)C(O)C(C)(C)C1 (configuration not stated)
GI50: 15 µM (inactive)
//
Compound: COc1ccc(N2CCOCC2)cc1
GI50: > 100 µM (inactive)
//
Compound: COc1c(CC(C)=O)c2ccccc2n1C(C)=O
GI50: > 100 µM (inactive)
